These measurements were taken from ChEMBL document CHEMBL5252638.

tested on: Enterococcus faecalis; assay: Bactericidal activity against Enterococcus faecalis ATCC 29212 by serial microdilution method; format: functional
Labelling: MBC reported below 80 µM becomes true; at or above becomes false.

CCCCC/C=C\C/C=C\CCCCCCCC(=O)OCC(COC(=O)CCCC[P+](c1ccccc1)(c1ccccc1)c1ccccc1)OC(=O)CCCC[P+](c1ccccc1)(c1ccccc1)c1ccccc1 (stereo unspecified) ... true
CC(C)C1=CC2=CC[C@@H]3[C@](C)(CCC[C@@]3(C)C(=O)OCC(O)COC(=O)CCCC[P+](c3ccccc3)(c3ccccc3)c3ccccc3)[C@H]2CC1 (stereo partly specified) ... false
CCCCCCCC/C=C\CCCCCCCC(=O)OCC(O)COC(=O)CCCC[P+](c1ccccc1)(c1ccccc1)c1ccccc1.[Br-] (stereo unspecified) ... false

Strictly below 80 µM in MBC? CCn1cc(C(=O)O)c(=O)c2cc(F)c(N3CCNCC3)cc21
true

Strictly below 80 µM in MBC? CCCCC/C=C\C/C=C\CCCCCCCC(=O)OC(COC(=O)CCCCCCC/C=C\CCCCCCCC)COC(=O)CCCC[P+](c1ccccc1)(c1ccccc1)c1ccccc1 (stereo unspecified)
true

====

system: Escherichia coli; test: Antimicrobial activity against Escherichia coli ATCC 25922 by serial microdilution method; format: functional
Could you please report measured MIC for the items listed next?
Answers are plain numbers, in µM.

Some compounds with known MIC results, for comparison:
CCCCC/C=C\C/C=C\CCCCCCCC(=O)OC(COC(=O)CCCCCCC/C=C\CCCCCCCC)COC(=O)CCCC[P+](c1ccccc1)(c1ccccc1)c1ccccc1 (stereo unspecified) ... 30
CCCCC/C=C\C/C=C\CCCCCCCC(=O)OCC(COC(=O)CCCC[P+](c1ccccc1)(c1ccccc1)c1ccccc1)OC(=O)CCCC[P+](c1ccccc1)(c1ccccc1)c1ccccc1 (stereo unspecified) ... 6.4
CCCCCCCC/C=C\CCCCCCCC(=O)OCC(O)COC(=O)CCCC[P+](c1ccccc1)(c1ccccc1)c1ccccc1.[Br-] (stereo unspecified) ... 125
CCCCC/C=C\C/C=C\CCCCCCCC(=O)OCC(O)COC(=O)CCCC[P+](c1ccccc1)(c1ccccc1)c1ccccc1.[Br-] (stereo unspecified) ... 20
CC(C)C1=CC2=CC[C@@H]3[C@](C)(CCC[C@@]3(C)C(=O)OCC(O)COC(=O)CCCC[P+](c3ccccc3)(c3ccccc3)c3ccccc3)[C@H]2CC1 (stereo partly specified) ... 250

Please turn your attention to the following entry.
Report MIC, nothing else, for this compound: CCn1cc(C(=O)O)c(=O)c2cc(F)c(N3CCNCC3)cc21 [NORFLOXACIN]
4.7

====

experiment: Selectivity index, ratio of IC50 for human WI-38 cells to IC50 for human HepG2 cells; type: toxicity; details: WI-38 cells and HepG2 cells, read-out: Ratio IC50
result_type: selectivity ratio
Numbers only.

Report selectivity ratio, nothing else, for this compound: CC(C)C1=CC2=CC[C@@H]3[C@](C)(CCC[C@@]3(C)C(=O)OCC(O)COC(=O)CCCC[P+](c3ccccc3)(c3ccccc3)c3ccccc3)[C@H]2CC1 (stereo partly specified)
1.1

====

test system: HepG2; experiment: Cytotoxicity against human HepG2 cells assessed as number of viable cells measured after 48 hrs by MTT based colorimetric assay; type: functional, cell-based; settings: HepG2, 48 h
Could you please report measured pIC50 for the items listed next?
Numbers only, as −log10 of the molar value.

Would you mind giving pIC50 for every compound in the list below?
1. CCCCC/C=C\C/C=C\CCCCCCCC(=O)OCC(COC(=O)CCCC[P+](c1ccccc1)(c1ccccc1)c1ccccc1)OC(=O)CCCC[P+](c1ccccc1)(c1ccccc1)c1ccccc1 (configuration not stated)
2. CCCCCCCC/C=C\CCCCCCCC(=O)OCC(O)COC(=O)CCCC[P+](c1ccccc1)(c1ccccc1)c1ccccc1.[Br-] (configuration not stated)
3. COc1cccc2c1C(=O)c1c(O)c3c(c(O)c1C2=O)C[C@@](O)(C(=O)CO)C[C@@H]3O[C@H]1C[C@H](N)[C@H](O)[C@H](C)O1
4. C=C(C)[C@@H]1CC[C@]2(COC(=O)CCC(=O)OC(COC(=O)CCCCCCC/C=C\CCCCCCCC)COC(=O)CCCC[P+](c3ccccc3)(c3ccccc3)c3ccccc3)CC[C@]3(C)[C@H](CC[C@@H]4[C@@]5(C)CC[C@H](O)C(C)(C)[C@@H]5CC[C@]43C)[C@@H]12.[Br-] (some centres not stated)
5. CCCCC/C=C\C/C=C\CCCCCCCC(=O)OCC(O)COC(=O)CCCC[P+](c1ccccc1)(c1ccccc1)c1ccccc1.[Br-] (configuration not stated)
6. CC(C)C1=CC2=CC[C@@H]3[C@](C)(CCC[C@@]3(C)C(=O)OCC(O)COC(=O)CCCC[P+](c3ccccc3)(c3ccccc3)c3ccccc3)[C@H]2CC1 (some centres not stated)
7. CCCCC/C=C\C/C=C\CCCCCCCC(=O)OC(COC(=O)CCCCCCC/C=C\CCCCCCCC)COC(=O)CCCC[P+](c1ccccc1)(c1ccccc1)c1ccccc1 (configuration not stated)

4.19
4.00
6.70
4.22
4.12
4.67
4.24

====

Could you please report measured IC50 at 48 h for the items listed next?
test: Cytotoxicity against human Chang liver cells assessed as number of viable cells measured after 48 hrs by MTT based colorimetric assay; assay type: toxicity, cell-based
One number for each entry, in µM.

Some compounds with known IC50 at 48 h results, for comparison:
CCCCCCCC/C=C\CCCCCCCC(=O)OCC(O)COC(=O)CCCC[P+](c1ccccc1)(c1ccccc1)c1ccccc1.[Br-] (stereo not drawn) ... 34
O=c1[nH]cc(F)c(=O)[nH]1 [FLUOROURACIL] ... 19

Please turn your attention to the following entry.
Report IC50 at 48 h, nothing else, for this compound: CCCCC/C=C\C/C=C\CCCCCCCC(=O)OCC(O)COC(=O)CCCC[P+](c1ccccc1)(c1ccccc1)c1ccccc1.[Br-] (stereo not drawn)
63

====

Could you please report measured selectivity ratio for the items listed next?
test: Selectivity index, ratio of IC50 for human WI-38 cells to IC50 for human PC-3 cells; type: toxicity; conditions: WI-38 cells and PC-3 cells, read-out: Ratio IC50
Numbers only.

Some compounds with known selectivity ratio results, for comparison:
C=C(C)[C@@H]1CC[C@]2(COC(=O)CCC(=O)OC(COC(=O)CCCCCCC/C=C\CCCCCCCC)COC(=O)CCCC[P+](c3ccccc3)(c3ccccc3)c3ccccc3)CC[C@]3(C)[C@H](CC[C@@H]4[C@@]5(C)CC[C@H](O)C(C)(C)[C@@H]5CC[C@]43C)[C@@H]12.[Br-] (stereo partly drawn) ... 1.1
CC(C)C1=CC2=CC[C@@H]3[C@](C)(CCC[C@@]3(C)C(=O)OCC(O)COC(=O)CCCC[P+](c3ccccc3)(c3ccccc3)c3ccccc3)[C@H]2CC1 (stereo partly drawn) ... 2.2

Please turn your attention to the following entry.
Report selectivity ratio, nothing else, for this compound: CCCCC/C=C\C/C=C\CCCCCCCC(=O)OC(COC(=O)CCCCCCC/C=C\CCCCCCCC)COC(=O)CCCC[P+](c1ccccc1)(c1ccccc1)c1ccccc1 (stereo not drawn)
1.4

====

assay: Selectivity index, ratio of IC50 for human WI-38 cells to IC50 for human MCF7 cells; type: toxicity; settings: WI-38 cells and MCF7 cells, read-out: Ratio IC50
Could you please report measured selectivity ratio for the items listed next?
Give bare numbers.

CCCCC/C=C\C/C=C\CCCCCCCC(=O)OC(COC(=O)CCCCCCC/C=C\CCCCCCCC)COC(=O)CCCC[P+](c1ccccc1)(c1ccccc1)c1ccccc1 (centres undefined) ... 1.6
C=C(C)[C@@H]1CC[C@]2(COC(=O)CCC(=O)OC(COC(=O)CCCCCCC/C=C\CCCCCCCC)COC(=O)CCCC[P+](c3ccccc3)(c3ccccc3)c3ccccc3)CC[C@]3(C)[C@H](CC[C@@H]4[C@@]5(C)CC[C@H](O)C(C)(C)[C@@H]5CC[C@]43C)[C@@H]12.[Br-] (some centres undefined) ... 2.2
C=C(C)[C@@H]1CC[C@]2(COCC(O)COC(=O)CCCC[P+](c3ccccc3)(c3ccccc3)c3ccccc3)CC[C@]3(C)[C@H](CC[C@@H]4[C@@]5(C)CC[C@H](O)C(C)(C)[C@@H]5CC[C@]43C)[C@@H]12 (some centres undefined) ... 3.1

Please turn your attention to the following entry.
Report selectivity ratio, nothing else, for this molecule: CC(C)C1=CC2=CC[C@@H]3[C@](C)(CCC[C@@]3(C)C(=O)OCC(O)COC(=O)CCCC[P+](c3ccccc3)(c3ccccc3)c3ccccc3)[C@H]2CC1 (some centres undefined)
1.9

====

organism: Homo sapiens; test: Selectivity index, ratio of IC50 for human WI-38 cells to IC50 for human HuTu80 cells
result_type: Ratio IC50
One number for each entry.

CCCCC/C=C\C/C=C\CCCCCCCC(=O)OC(COC(=O)CCCCCCC/C=C\CCCCCCCC)COC(=O)CCCC[P+](c1ccccc1)(c1ccccc1)c1ccccc1 (stereo not given) ... 10.8
CC(C)C1=CC2=CC[C@@H]3[C@](C)(CCC[C@@]3(C)C(=O)OCC(O)COC(=O)CCCC[P+](c3ccccc3)(c3ccccc3)c3ccccc3)[C@H]2CC1 (stereo not given in full) ... 11
C=C(C)[C@@H]1CC[C@]2(COC(=O)CCC(=O)OC(COC(=O)CCCCCCC/C=C\CCCCCCCC)COC(=O)CCCC[P+](c3ccccc3)(c3ccccc3)c3ccccc3)CC[C@]3(C)[C@H](CC[C@@H]4[C@@]5(C)CC[C@H](O)C(C)(C)[C@@H]5CC[C@]43C)[C@@H]12.[Br-] (stereo not given in full) ... 21.4
CCCCCCCC/C=C\CCCCCCCC(=O)OCC(O)COC(=O)CCCC[P+](c1ccccc1)(c1ccccc1)c1ccccc1.[Br-] (stereo not given) ... 5.1

Please turn your attention to the following entry.
Report Ratio IC50, nothing else, for this molecule: C=C(C)[C@@H]1CC[C@]2(COCC(O)COC(=O)CCCC[P+](c3ccccc3)(c3ccccc3)c3ccccc3)CC[C@]3(C)[C@H](CC[C@@H]4[C@@]5(C)CC[C@H](O)C(C)(C)[C@@H]5CC[C@]43C)[C@@H]12 (stereo not given in full)
15.7
